The measured values listed here are drawn from patent US10952436B2.

Parameter: inhibition of growth at 200 ppm. Scope: all listed entries.
System: Gaeumannomyces graminis
protocol_details: Gaeumannomyces graminis/Liquid Culture (Take-all of Cereals)
Type: cell-based
experimental_context: 200 ppm, liquid culture, compared to untreated control, 4-5 days after application, read-out: control of Gaeumannomyces graminis
property: inhibition of growth at 200 ppm

[[record]]
compound = "CC(C)CC(C)(Cc1ccccc1)C(=O)Nc1cnc2c(F)cccc2c1 (stereo not drawn) [Compound E-87]"
reported_value = "≥ 80%"

[[record]]
compound = "O=C(Nc1cnc2c(F)cccc2c1)C(Cc1ccccc1)CC(F)(F)F (stereo not drawn) [Compound E-82]"
reported_value = "≥ 80%"

[[record]]
compound = "CC(Cc1ccccc1)(CC1CC1(Cl)Cl)C(=O)Nc1cnc2c(F)cccc2c1 (stereo not drawn) [Compound E-75]"
reported_value = "≥ 80%"

[[record]]
compound = "CC(Cc1ccccc1)(CC1CC1)C(=O)Nc1cnc2c(F)cccc2c1 (stereo not drawn) [Compound E-76]"
reported_value = "≥ 80%"

[[record]]
compound = "CC(Cc1ccccc1)(CC1CC1(F)F)C(=O)Nc1cnc2c(F)cccc2c1 (stereo not drawn) [Compound E-72]"
reported_value = "≥ 80%"

[[record]]
compound = "CC(C)C[C@@](C)(Cc1ccccc1)C(=O)Nc1cnc2c(F)cccc2c1 [Compound F-20]"
reported_value = "≥ 80%"

